Target: RORγt (Homo sapiens, UniProt P51449)
Sequence (P51449 1-497 isoform P51449-2, species assumed): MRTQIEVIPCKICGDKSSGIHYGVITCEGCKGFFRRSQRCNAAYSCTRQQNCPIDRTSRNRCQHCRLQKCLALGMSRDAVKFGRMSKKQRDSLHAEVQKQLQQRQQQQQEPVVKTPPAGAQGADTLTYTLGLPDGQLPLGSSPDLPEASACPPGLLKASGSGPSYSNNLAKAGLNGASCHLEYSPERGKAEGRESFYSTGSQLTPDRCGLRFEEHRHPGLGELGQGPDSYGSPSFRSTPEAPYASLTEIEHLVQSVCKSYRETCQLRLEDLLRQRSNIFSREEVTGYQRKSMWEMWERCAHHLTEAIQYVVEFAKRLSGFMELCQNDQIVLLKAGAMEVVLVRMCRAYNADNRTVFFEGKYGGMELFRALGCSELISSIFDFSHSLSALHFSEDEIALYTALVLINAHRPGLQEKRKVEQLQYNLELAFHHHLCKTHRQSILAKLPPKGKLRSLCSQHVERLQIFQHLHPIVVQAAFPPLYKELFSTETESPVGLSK
Assay: Cofactor recruitment test (Alpha Screen, biotinylated SRC-1 peptide)
Type: biochemical
Conditions: read-out: Signal value inhibitory rate at test compound 1 μM (%)
Below, each entry is listed alongside its reported inhibition at 1 µM.
Your answer is read as %, so omit the unit and give the number.

>>> numeric_result("COc1ccc2c(c1)CCN(C(=O)[C@@H](O)CCC(=O)O)[C@H]2C(=O)Nc1cc(F)c([Si](C)(C)C)c(F)c1")
87
>>> numeric_result("COc1ccc2c(c1)CCN(C(=O)c1cc(O)no1)[C@H]2C(=O)Nc1cc(F)c(C(C)(C)COCC2CC2)c(F)c1")
76
>>> numeric_result("COc1ccc2c(c1)CCN(C(=O)c1cc(O)no1)C2C(=O)Nc1ccc([Si](C)(C)C)c(F)c1 (stereo not shown)")
92.7

We next turn to a different molecule, shown below.
Looking for the measured inhibition at 1 µM of COCc1ccc2c(c1)CCN(C(=O)c1cc(O)no1)[C@H]2C(=O)Nc1ccc([Si](C)(C)C)c(F)c1 , can you help?
100
